# System: TKU015 nattokinase
# TEST PROTOCOL: Influence of organic solvents on activity of TKU015 nattokinase
# Format: biochemical, Pseudomonas sp. TKU015
# CONDITIONS: in the presence of organic solvent; 100% represents 20 FU/mL
Recorded Relative activity(%) TKU015 nattokinase values for a group of molecules are listed next.
PROPERTY NAME: Relative activity(%) TKU015 nattokinase

>  <MOLECULE>
CC#N

>  <PROPERTY NAME>
Relative activity(%) TKU015 nattokinase

>  <NUMERIC RESULT>
88

$$$$
>  <MOLECULE>
C[S+](C)[O-]

>  <PROPERTY NAME>
Relative activity(%) TKU015 nattokinase

>  <NUMERIC RESULT>
80

$$$$
>  <MOLECULE>
CC(C)CCO

>  <PROPERTY NAME>
Relative activity(%) TKU015 nattokinase

>  <NUMERIC RESULT>
60

$$$$
>  <MOLECULE>
CCOC(C)=O [ethyl acetate]

>  <PROPERTY NAME>
Relative activity(%) TKU015 nattokinase

>  <NUMERIC RESULT>
70

$$$$
>  <MOLECULE>
CO

>  <PROPERTY NAME>
Relative activity(%) TKU015 nattokinase

>  <NUMERIC RESULT>
96

$$$$
>  <MOLECULE>
CCO

>  <PROPERTY NAME>
Relative activity(%) TKU015 nattokinase

>  <NUMERIC RESULT>
65

$$$$
>  <MOLECULE>
CCOCC

>  <PROPERTY NAME>
Relative activity(%) TKU015 nattokinase

>  <NUMERIC RESULT>
43

$$$$
>  <MOLECULE>
CC(C)O

>  <PROPERTY NAME>
Relative activity(%) TKU015 nattokinase

>  <NUMERIC RESULT>
68

$$$$
>  <MOLECULE>
CC(C)=O

>  <PROPERTY NAME>
Relative activity(%) TKU015 nattokinase

>  <NUMERIC RESULT>
150

$$$$
>  <MOLECULE>
CCCCCC

>  <PROPERTY NAME>
Relative activity(%) TKU015 nattokinase

>  <NUMERIC RESULT>
66

$$$$
>  <MOLECULE>
Cc1ccccc1

>  <PROPERTY NAME>
Relative activity(%) TKU015 nattokinase

>  <NUMERIC RESULT>
106

$$$$
